Tested on: CCI-induced cold hypersensitivity in Sprague Dawley rats
PROTOCOL DETAILS: Chronic constriction injury (CCI)-induced neuropathic pain, acetone-induced cold hypersensitivity
Format: in vivo
RUN CONDITIONS: po; rat CCI; 10 mg/kg p.o.; 3 h post-dose; read-out: % Inhibition (acetone-evoked paw withdrawals)
Counter-ions that a name gives are not always drawn.
RECORDED ENDPOINT: inhibition in vivo at 10 mg/kg (%)
Numeric only. Scale: %

COMPOUND	READING UNIT	MEASURED RESULT
Fc1ccccc1-c1cc(C(F)(F)F)c2[nH]c(C3=NOC4(CCCCC4)C3)nc2c1 [Cpd 53, hydrochloride]	%	42.9
FC(F)(F)Oc1ccccc1-c1cc(C(F)(F)F)c2[nH]c(C3=NOC4(CCCCC4)C3)nc2c1 [Cpd 51, hydrochloride]	%	57.1
FC(F)(F)c1ccccc1-c1ccc2nc(C3=NOC4(CCCCC4)C3)[nH]c2c1	%	65
FC(F)(F)c1ccccc1-c1cc(Cl)c2[nH]c(C3=NOC4(CCCCC4)C3)nc2c1 [Cpd 16, hydrochloride]	%	82.5
FC(F)(F)Oc1ccccc1-c1ccc2[nH]c(C3=NOC4(CCCCC4)C3)nc2c1 [Cpd 7, hydrochloride]	%	83
FC(F)(F)c1cc(-c2ccccc2Cl)cc2nc(C3=NOC4(CCCCC4)C3)[nH]c12 [Cpd 30, hydrochloride]	%	62.9

Test system CCI-induced cold hypersensitivity in Sprague Dawley rats; read-out inhibition in vivo at 10 mg/kg; what value for FC(F)(F)c1ccccc1-c1cc(C(F)(F)F)c2[nH]c(C3=NOC4(CCCCC4)C3)nc2c1 [Cpd 27, hydrochloride] ?
83
